Let's look at some compounds and their measured cell viability.
- Test system: SEM cells
- Experiment: cell viability relative to DMSO control; higher = less cytotoxic
- Test Context: HPLM + 10% dialyzed FBS; 48 h; 1.71 µM
The figure you give is taken to be in %; do not add the unit.

Answered cases to consult:
CC[C@H](C)[N]1C=C(C)C2=C1C=C(C=C2C(=O)NC\C3=C(C)\C=C(\C)NC3=O)C4=CC=C(N=C4)N5CCNCC5: 117
C\C1=C(\C=C(C#N)/C(=O)N1)C2=C[N]3C=CN=C3C=C2: 87.4

Input: Assign cell viability to the following record: "CNC[C@H](O)c1ccc(O)c(O)c1"
Output: 68.7

Input: Assign cell viability to the following record: "FC(F)c1nc2ccccc2n1-c1nc(N2CCOCC2)nc(N2CCOCC2)n1"
Output: 66.6

Input: Assign cell viability to the following record: "CCOC(=O)C/1=C(O)/C(=O)N(CC2=CC=CC=C2)C1"
Output: 120
